The measured values listed here are drawn from PubChem BioAssay AID651833.

// reported activation for each item listed
# Tgt: Kelch-like ECH-associated protein 1 (Homo sapiens) + Nuclear factor erythroid 2-related factor 2 (Homo sapiens) (UniProt Q14145+Q16236)
# Sequence (Q14145 whole entry, looked up): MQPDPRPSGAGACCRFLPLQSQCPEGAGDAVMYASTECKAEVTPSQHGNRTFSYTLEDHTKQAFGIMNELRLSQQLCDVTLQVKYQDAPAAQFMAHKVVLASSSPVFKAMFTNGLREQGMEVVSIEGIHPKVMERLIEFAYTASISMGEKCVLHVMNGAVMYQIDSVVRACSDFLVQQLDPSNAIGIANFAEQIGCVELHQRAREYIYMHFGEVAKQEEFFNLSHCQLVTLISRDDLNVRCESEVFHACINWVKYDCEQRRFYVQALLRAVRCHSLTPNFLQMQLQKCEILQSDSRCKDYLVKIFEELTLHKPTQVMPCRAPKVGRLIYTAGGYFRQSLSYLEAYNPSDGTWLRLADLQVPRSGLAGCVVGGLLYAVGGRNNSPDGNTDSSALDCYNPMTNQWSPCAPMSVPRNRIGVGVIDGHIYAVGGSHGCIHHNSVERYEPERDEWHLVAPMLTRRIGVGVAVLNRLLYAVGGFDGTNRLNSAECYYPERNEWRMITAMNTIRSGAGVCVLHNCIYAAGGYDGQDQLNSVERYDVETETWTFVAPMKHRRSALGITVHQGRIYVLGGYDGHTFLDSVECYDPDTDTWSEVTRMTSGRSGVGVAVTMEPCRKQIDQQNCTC
# Sequence (Q16236 whole entry, looked up): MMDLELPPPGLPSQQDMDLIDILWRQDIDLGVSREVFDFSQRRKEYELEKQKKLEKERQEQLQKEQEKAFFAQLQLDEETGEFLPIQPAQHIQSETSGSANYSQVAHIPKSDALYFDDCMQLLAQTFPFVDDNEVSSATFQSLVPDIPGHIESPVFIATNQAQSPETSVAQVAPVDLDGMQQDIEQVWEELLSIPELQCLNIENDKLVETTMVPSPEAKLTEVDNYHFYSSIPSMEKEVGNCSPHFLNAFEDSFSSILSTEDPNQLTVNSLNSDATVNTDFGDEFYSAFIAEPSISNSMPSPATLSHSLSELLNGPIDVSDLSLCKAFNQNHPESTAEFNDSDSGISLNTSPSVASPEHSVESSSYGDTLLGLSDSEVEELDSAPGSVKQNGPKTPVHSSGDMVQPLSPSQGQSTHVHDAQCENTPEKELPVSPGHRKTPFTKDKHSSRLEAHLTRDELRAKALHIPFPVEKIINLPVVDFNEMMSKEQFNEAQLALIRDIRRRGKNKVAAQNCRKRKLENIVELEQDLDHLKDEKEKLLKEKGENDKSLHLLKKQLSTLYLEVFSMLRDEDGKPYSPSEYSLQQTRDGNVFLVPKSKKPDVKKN
# Assay Summary: Nrf2 nuclear translocation activators in cells, dose response, orthogonal assay for Keap1-Nrf2 interaction inhibitor project, PathHunter, U2OS cells, dry powder (AID 651833)
# Measurement Setup: beta-gal luminescence, 3 h, at 38 µM (top of the series)
All answers are understood in %, so give the number only.

Solved cases (8 shown):
- Molecule: "Cc1cc(C)c(S(=O)(=O)Nc2nc(NCCO)nc3ccccc23)c(C)c1"
  Reported Result: 3.36
- Molecule: "CCOC(=O)Cc1nc(NS(=O)(=O)c2c(C)cc(C)cc2C)c2ccccc2n1"
  Reported Result: 8.62
- Molecule: "NC(=O)c1ccccc1C(=O)NC[C@@H]1c2ccccc2CCN1C(=O)[C@@H]1CCCC[C@@H]1C(=O)O"
  Reported Result: 8.88
- Molecule: "C[C@H](NC(=O)C1CCCC[C@H]1C(=O)O)c1ccccc1 (mixture of isomers)"
  Reported Result: -4.29
- Molecule: "O=C(O)C1CCCCC1C(=O)N1CCc2ccccc2C1CN1C(=O)c2ccccc2S1(=O)=O (centres undefined)"
  Reported Result: 13.7
- Molecule: "COC(=O)C1CCCCC1C(=O)N1CCc2ccccc2C1CN1C(=O)c2ccccc2C1=O (centres undefined)"
  Reported Result: 1.27
- Molecule: "O=C(O)/C=C\\C(=O)N1CCc2ccccc2C1CN1C(=O)c2ccccc2C1=O (centres undefined)"
  Reported Result: 13
- Molecule: "Cc1cc(C)c(S(=O)(=O)Nc2nc(N(C)C)nc3ccccc23)c(C)c1"
  Reported Result: 2.02

# input # query: activation of entry COC(=O)[C@H]1CCCC[C@H]1C(=O)N1CCc2ccccc2[C@H]1CN1C(=O)c2ccccc2C1=O
# output -2.1
